target: hERG-encoded potassium channel (Homo sapiens, UniProt Q12809); experiment: Activity against hERG (planar-array-based voltage clamp, Kiss et al.)
Sequence (Q12809 whole entry): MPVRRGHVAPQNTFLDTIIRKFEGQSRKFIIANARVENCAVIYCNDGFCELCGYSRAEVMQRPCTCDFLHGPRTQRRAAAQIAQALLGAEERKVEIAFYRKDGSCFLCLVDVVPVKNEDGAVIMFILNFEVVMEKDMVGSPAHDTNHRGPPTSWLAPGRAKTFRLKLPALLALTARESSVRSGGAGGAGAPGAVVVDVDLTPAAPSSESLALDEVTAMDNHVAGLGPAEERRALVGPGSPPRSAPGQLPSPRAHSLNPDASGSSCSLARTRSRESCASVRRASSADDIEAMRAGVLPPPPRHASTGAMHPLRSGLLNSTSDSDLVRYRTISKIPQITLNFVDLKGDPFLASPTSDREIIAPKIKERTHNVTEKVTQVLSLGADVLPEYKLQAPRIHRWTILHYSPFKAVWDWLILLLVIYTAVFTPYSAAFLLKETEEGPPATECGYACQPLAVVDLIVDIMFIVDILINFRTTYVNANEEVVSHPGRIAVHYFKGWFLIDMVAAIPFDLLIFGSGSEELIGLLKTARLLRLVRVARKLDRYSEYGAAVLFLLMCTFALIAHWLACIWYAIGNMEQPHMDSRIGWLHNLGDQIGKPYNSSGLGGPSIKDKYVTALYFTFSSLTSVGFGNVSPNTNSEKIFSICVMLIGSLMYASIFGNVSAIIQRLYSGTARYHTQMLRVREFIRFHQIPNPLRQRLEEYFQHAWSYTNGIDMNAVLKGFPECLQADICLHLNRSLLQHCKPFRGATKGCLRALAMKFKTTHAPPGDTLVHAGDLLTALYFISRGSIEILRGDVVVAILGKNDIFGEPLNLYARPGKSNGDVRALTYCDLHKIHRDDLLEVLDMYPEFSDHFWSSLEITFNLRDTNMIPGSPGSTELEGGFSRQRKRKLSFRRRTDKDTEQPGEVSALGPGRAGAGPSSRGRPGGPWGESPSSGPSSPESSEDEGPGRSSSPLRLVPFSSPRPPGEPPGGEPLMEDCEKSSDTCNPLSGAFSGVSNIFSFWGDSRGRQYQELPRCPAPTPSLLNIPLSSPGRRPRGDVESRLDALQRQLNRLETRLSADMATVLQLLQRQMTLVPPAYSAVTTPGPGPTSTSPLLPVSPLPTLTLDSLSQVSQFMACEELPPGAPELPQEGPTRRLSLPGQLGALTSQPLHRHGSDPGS
Measured property: IC50
Report as: number unit

[Q] Return reported IC50; argument: CN(C[C@@H](CCN1CC(N2CCC(C(=O)N3CCC3)CC2)C1)c1ccc(F)cc1)C(=O)c1cc(Br)cc(C(F)(F)F)c1
[A] 11 µM
